# target.system: T1, cynomolgus monkey BCMA (cynomolgus monkey, UniProt A0A2K5UD97 1-53)
# T1 construct: Soluble analyte in SPR; construct not described; also called cyBCMA; Cyno BCMA
# T1 sequence (A0A2K5UD97 entry or part of it): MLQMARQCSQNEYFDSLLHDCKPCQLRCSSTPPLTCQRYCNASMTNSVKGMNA
# assay.remarks: SPR, IgG on chip, cyBCMA analyte, 37C
experimental.endpoint: Kd (nM)
Number only, in nM; omit the unit.

Here are 2 binders together with their reported answers.
| binder | Kd, nM |
| --- | --- |
| L3.PY/L1.FF/H3.TAQ (antibody, V domains shown, IgG) VH: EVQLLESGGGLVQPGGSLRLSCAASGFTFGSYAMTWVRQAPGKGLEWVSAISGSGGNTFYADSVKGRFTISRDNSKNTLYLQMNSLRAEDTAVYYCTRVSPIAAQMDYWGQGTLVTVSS VL: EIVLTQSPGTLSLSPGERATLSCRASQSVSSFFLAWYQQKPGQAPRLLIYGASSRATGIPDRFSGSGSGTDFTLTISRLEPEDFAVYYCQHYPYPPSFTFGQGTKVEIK | 1.62 |
| L3.PY/L3.KY/H2.YQ (antibody, V domains shown, IgG) VH: EVQLLESGGGLVQPGGSLRLSCAASGFTFGSYAMTWVRQAPGKGLEWVSAISYQGGNTFYADSVKGRFTISRDNSKNTLYLQMNSLRAEDTAVYYCARVSPIASGMDYWGQGTLVTVSS VL: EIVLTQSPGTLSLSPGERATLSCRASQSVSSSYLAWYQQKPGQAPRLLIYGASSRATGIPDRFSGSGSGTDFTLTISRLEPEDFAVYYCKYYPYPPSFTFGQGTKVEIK | 2.04 |

For L3.PY/L3.KF/H2.LT (antibody, V domains shown, IgG) VH: EVQLLESGGGLVQPGGSLRLSCAASGFTFGSYAMTWVRQAPGKGLEWVSAISLTGGNTFYADSVKGRFTISRDNSKNTLYLQMNSLRAEDTAVYYCARVSPIASGMDYWGQGTLVTVSS VL: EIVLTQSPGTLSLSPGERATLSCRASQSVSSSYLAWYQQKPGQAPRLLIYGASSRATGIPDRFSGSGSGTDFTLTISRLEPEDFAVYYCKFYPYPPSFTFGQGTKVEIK , what is its reported Kd?
2.16
